Tested on: human sarcoma cell line HT-1080
Assay: In vitro cytotoxicity against HT-1080, XTT/PMS cell viability assay
Conditions: Homo sapiens, HT-1080, 24 h, read-out: IC50 for 24 h drug exposure, treated medium = thymidine-free RPMI-1640 + 10% FCS, 24 h exposure
Measured Parameter: pIC50
Remember, pIC50 is on a log scale: it is -log10 of the molar concentration.

pIC50 in this record for CN(Cc1cnc2nc(N)nc(N)c2n1)c1ccc(C(=O)N[C@@H](CCC(=O)O)C(=O)O)cc1 [MTX, methotrexate] : 7.16
